Test: Pharmacokinetics of CYZ in human plasma after I.V administration (non-compartmental analysis)
Assay type: in vivo
Settings: intravenous, I.V administration of Emetrex 50 mg, read-out: Volume of distribution (Vd)
METRIC_NAME: Vd (L)
Expressed in L, but write only the number.

Record CN1CCN(C(c2ccccc2)c2ccccc2)CC1 [CYZ, 1-benzhydryl-4-methylpiperazine] , field Vd: 0.695

----------
Assay: Stability of CYZ in plasma (short-term room temperature and freeze-thaw)
Assay type: in vitro ADME, human
Conditions: rat plasma, 30 ng/mL, three freeze thaw cycle
METRIC_NAME: remaining at 30 ng/mL (%)
# number only, unit % dropped from output

// remaining at 30 ng/mL lookup, compound = CN1CCN(C(c2ccccc2)c2ccccc2)CC1 [CYZ, 1-benzhydryl-4-methylpiperazine] , result: 97.1
